tested on: rodent lifetime carcinogenesis bioassay, tumor incidence TD50; assay: carcinogenic potency in animals, long-term in vivo studies, CPDB compilation (AID 1745844); settings: rat; strain BR 46; males; i.v.; site: any site (literature study); lesion: benign tumor; dosed 52 weeks; study length 104 weeks
The source made the active and inactive calls. How the calls were made is not given here.
recorded.endpoint: TD50

Request: May I ask what TD50 has been recorded for `S=P(N1CC1)(N1CC1)N1CC1` ?
Result: 0.646 mg/kg/day

Request: Here is the next compound: `CN[C@H]1CCc2cc(OC)c(OC)c(OC)c2-c2ccc(OC)c(=O)cc21`
Result: 0.248 mg/kg/day (inactive)

Request: Here is the next compound: `O=C1C=C(N2CC2)C(=O)C(N2CC2)=C1N1CC1`
Result: 0.032 mg/kg/day

---

test system: rodent lifetime carcinogenesis bioassay, tumor incidence TD50; experiment: carcinogenic potency in animals, long-term in vivo studies, CPDB compilation (AID 1745844); details: rat; strain Fischer 344; males; by gavage; site: thyroid gland + thyroid follicle; lesion: follicular-cell adenoma + cystadenoma, NOS; dosed 103 weeks; study length 104 weeks
recorded.endpoint: TD50 (mg/kg/day)
// note: answer is a bare numeric in mg/kg/day

Request: API: value(readout=TD50, system=rodent lifetime carcinogenesis bioassay, tumor incidence TD50) for record CCCCC(CC)COP(=O)(OCC(CC)CCCC)OCC(CC)CCCC (stereo unspecified)
Result: 28000

---

tested on: rodent lifetime carcinogenesis bioassay, tumor incidence TD50; experiment: carcinogenic potency in animals, long-term in vivo studies, CPDB compilation (AID 1745844); conditions: rat; strain Osborne-Mendel; females; in feed; site: liver; lesion: hepatocellular adenoma + hepatocellular carcinoma + neoplastic nodule; dosed 80 weeks; study length 110 weeks
recorded.endpoint: TD50 (mg/kg/day)
// note: answer is a bare numeric in mg/kg/day

Request: May I ask what TD50 has been recorded for `ClC1=C(Cl)[C@]2(Cl)[C@@H]3[C@H]4C[C@H]([C@@H]5O[C@H]45)[C@@H]3[C@@]1(Cl)C2(Cl)Cl` ?
Result: 7.44

---

system: rodent lifetime carcinogenesis bioassay, tumor incidence TD50; assay: carcinogenic potency in animals, long-term in vivo studies, CPDB compilation (AID 1745844); details: rat; strain Wistar; females; in feed; site: pituitary gland; lesion: adenoma; dosed 104 weeks; study length 104 weeks
Active and inactive are the calls of the source. The rule behind the calls is not given here.
recorded.endpoint: TD50

Request: May I ask what TD50 has been recorded for C[C@@H]1CCC[C@H](C)N1CCCC(O)(c1ccccc1)c1ccccn1 (some centres not stated) ?
Result: 15.9 mg/kg/day (inactive)

Request: Here is the next molecule: CCOC(=O)C1OC1(C)c1ccccc1 (configuration not stated)
Result: 331 mg/kg/day (inactive)

---

tested on: rodent lifetime carcinogenesis bioassay, tumor incidence TD50; test: carcinogenic potency in animals, long-term in vivo studies, CPDB compilation (AID 1745844); settings: rat; strain Fischer 344; males; in feed; site: subcutaneous tissue; lesion: fibrosarcoma + sarcoma; dosed 12 weeks; study length 103 weeks
recorded.endpoint: TD50 (mg/kg/day)
// note: answer is a bare numeric in mg/kg/day

Request: May I ask what TD50 has been recorded for `OCC(CO)(CBr)CBr` ?
Result: 654

---

system: rodent lifetime carcinogenesis bioassay, tumor incidence TD50; experiment: carcinogenic potency in animals, long-term in vivo studies, CPDB compilation (AID 1745844); conditions: hamster; strain Syrian Golden; females; inhaled; site: larynx; lesion: squamous-cell carcinoma; dosed 52 weeks; study length 81 weeks
recorded.endpoint: TD50

Request: May I ask what TD50 has been recorded for `CC=O` ?
Result: 2360 mg/kg/day

---

system: rodent lifetime carcinogenesis bioassay, tumor incidence TD50; test: carcinogenic potency in animals, long-term in vivo studies, CPDB compilation (AID 1745844); conditions: rat; strain Sprague-Dawley; females; by gavage; site: liver; lesion: hepatocellular carcinoma; dosed 104 weeks; study length 138 weeks
Calls of active or inactive are those of the source. How the calls were made is not given here.
recorded.endpoint: TD50

Request: May I ask what TD50 has been recorded for `C[C@@H]1O[C@@H](OC[C@H]2O[C@@H](Oc3c(-c4ccc(O)c(O)c4)oc4cc(O)cc(O)c4c3=O)[C@H](O)[C@@H](O)[C@@H]2O)[C@H](O)[C@H](O)[C@H]1O` ?
Result: 44800 mg/kg/day (inactive)

---

system: rodent lifetime carcinogenesis bioassay, tumor incidence TD50; test: carcinogenic potency in animals, long-term in vivo studies, CPDB compilation (AID 1745844); settings: rat; strain Fischer 344; males; by gavage; site: forestomach; lesion: squamous-cell carcinoma + squamous-cell papilloma; dosed 104 weeks; study length 104 weeks
recorded.endpoint: TD50

Request: May I ask what TD50 has been recorded for `C/C=C/C=C/C=O` ?
Result: 44.7 mg/kg/day

---

test system: rodent lifetime carcinogenesis bioassay, tumor incidence TD50; assay: carcinogenic potency in animals, long-term in vivo studies, CPDB compilation (AID 1745844); conditions: rat; strain Fischer 344; males; in feed; site: liver; lesion: hepatocellular adenoma; dosed 130 weeks; study length 130 weeks
recorded.endpoint: TD50 (mg/kg/day)
// note: answer is a bare numeric in mg/kg/day

Request: API: value(readout=TD50, system=rodent lifetime carcinogenesis bioassay, tumor incidence TD50) for record ClC1=C(Cl)C2(Cl)C3C(Cl)C(Cl)CC3C1(Cl)C2(Cl)Cl (stereo unspecified)
Result: 15.3

---

test system: rodent lifetime carcinogenesis bioassay, tumor incidence TD50; experiment: carcinogenic potency in animals, long-term in vivo studies, CPDB compilation (AID 1745844); conditions: mouse; strain B6C3F1; females; in feed; site: lung; lesion: several types; types named in the paper; dosed 81 weeks; study length 81 weeks
recorded.endpoint: TD50
Just so you know, I need the unit written after the number.

Request: May I ask what TD50 has been recorded for `Cc1ccc2ccccc2c1` ?
Result: 4010 mg/kg/day

---

tested on: rodent lifetime carcinogenesis bioassay, tumor incidence TD50; assay: carcinogenic potency in animals, long-term in vivo studies, CPDB compilation (AID 1745844); conditions: mouse; strain B6C3F1; females; by gavage; site: liver; lesion: hepatocellular adenoma + hepatoblastoma + hepatocellular carcinoma; dosed 104 weeks; study length 104 weeks
recorded.endpoint: TD50
Just so you know, I need the unit written after the number.

Request: May I ask what TD50 has been recorded for `Cc1cn([C@H]2C[C@H](N=[N+]=[N-])[C@@H](CO)O2)c(=O)[nH]c1=O` ?
Result: 139 mg/kg/day

Request: Here is the next compound: COC1COC(OC2COC(OC3COC(OC4COC(OC)C(OS(=O)(=O)O)C4OS(=O)(=O)O)C(OC4OC(C(=O)O)C(OC)C(OS(=O)(=O)O)C4OS(=O)(=O)O)C3OS(=O)(=O)O)C(OS(=O)(=O)O)C2OS(=O)(=O)O)C(OS(=O)(=O)O)C1OS(=O)(=O)O (configuration not stated)
Result: 867 mg/kg/day

---

test system: rodent lifetime carcinogenesis bioassay, tumor incidence TD50; assay: carcinogenic potency in animals, long-term in vivo studies, CPDB compilation (AID 1745844); conditions: rat; strain Fischer 344; males; by gavage; site: testis; lesion: interstitial-cell tumor; dosed 94 weeks; study length 104 weeks
recorded.endpoint: TD50 (mg/kg/day)
// note: answer is a bare numeric in mg/kg/day

Request: API: value(readout=TD50, system=rodent lifetime carcinogenesis bioassay, tumor incidence TD50) for record `CC(C)=CCl`
Result: 13.9

---

test system: rodent lifetime carcinogenesis bioassay, tumor incidence TD50; test: carcinogenic potency in animals, long-term in vivo studies, CPDB compilation (AID 1745844); conditions: rat; strain Osborne-Mendel; males; in feed; site: testis; lesion: interstitial-cell adenoma; dosed 108 weeks; study length 108 weeks
Activity calls are given as the source filed them. No rule for the calls is given here.
recorded.endpoint: TD50

Request: API: value(readout=TD50, system=rodent lifetime carcinogenesis bioassay, tumor incidence TD50) for record `Cc1cc(N=Nc2c(O)ccc3ccccc23)c(S(=O)(=O)O)cc1Cl`
Result: 28600 mg/kg/day (inactive)

---

system: rodent lifetime carcinogenesis bioassay, tumor incidence TD50; assay: carcinogenic potency in animals, long-term in vivo studies, CPDB compilation (AID 1745844); settings: rat; strain Fischer 344; males; by gavage; site: testis; lesion: interstitial-cell tumor; dosed 130 weeks; study length 130 weeks
recorded.endpoint: TD50 (mg/kg/day)
// note: answer is a bare numeric in mg/kg/day

Request: API: value(readout=TD50, system=rodent lifetime carcinogenesis bioassay, tumor incidence TD50) for record `CN(CCCO)N=O`
Result: 2.26

---

system: rodent lifetime carcinogenesis bioassay, tumor incidence TD50; assay: carcinogenic potency in animals, long-term in vivo studies, CPDB compilation (AID 1745844); details: mouse; strain Charles River CD1; females; in feed; site: liver; lesion: hepatocellular carcinoma; dosed 52 weeks; study length 52 weeks
recorded.endpoint: TD50

Request: May I ask what TD50 has been recorded for `CCCCOCCOCCOCc1cc2c(cc1CCC)OCO2` ?
Result: 756 mg/kg/day

---

test system: rodent lifetime carcinogenesis bioassay, tumor incidence TD50; test: carcinogenic potency in animals, long-term in vivo studies, CPDB compilation (AID 1745844); details: rat; strain Fischer 344; males; by gavage; site: preputial gland; lesion: adenoma + adenoma, bilateral; dosed 103 weeks; study length 104 weeks
recorded.endpoint: TD50 (mg/kg/day)
// note: answer is a bare numeric in mg/kg/day

Request: API: value(readout=TD50, system=rodent lifetime carcinogenesis bioassay, tumor incidence TD50) for record `c1ccoc1`
Result: 21.5
